Assay: clinical
Conditions: human, in vivo, 125 mg

[
  {
    "structure smiles string": "CC1(C)CNc2cc(NC(=O)c3cccnc3NCc3ccncc3)ccc21",
    "measurement units": "ng·h/mL",
    "AUC(0-inf)": 1700
  }
]

====

Test: plasma pharmacokinetics of gemcitabine in patients (phase 1b)
Conditions: human, plasma, iv, 1000 mg m^−2, C2, ng ml^−1 (s.d.), gemcitabine 1000 mg m^−2 i.v. alone (week 1, day 1); motesanib 125 mg QD cohort

[
  {
    "structure smiles string": "Nc1ccn([C@@H]2O[C@H](CO)[C@@H](O)C2(F)F)c(=O)n1",
    "concentration at 2 h, ng/mL": 88
  }
]

====

Experiment: plasma pharmacokinetics of gemcitabine in patients (phase 1b)
Settings: human, plasma, iv, 1000 mg m^−2, tmax, h (range), gemcitabine 1000 mg m^−2 i.v. alone (week 1, day 1); motesanib 75 mg BID cohort

[
  {
    "structure smiles string": "Nc1ccn([C@@H]2O[C@H](CO)[C@@H](O)C2(F)F)c(=O)n1",
    "measurement units": "min",
    "Tmax": 30
  }
]

====

Test: plasma pharmacokinetics of gemcitabine in patients (phase 1b)
Details: human, plasma, iv, 1000 mg m^−2, AUC0–2, μg h ml^−1 (s.d.), gemcitabine 1000 mg m^−2 i.v. alone (week 1, day 1); motesanib 50 mg QD cohort
quantity: AUC(0-t) (ng·h/mL)

[
  {
    "structure smiles string": "Nc1ccn([C@@H]2O[C@H](CO)[C@@H](O)C2(F)F)c(=O)n1",
    "measurement units": "ng·h/mL",
    "quantitative result": 5210
  }
]

====

Test: plasma pharmacokinetics of gemcitabine in patients (phase 1b)
Details: human, plasma, intravenous, AUC0–2, week 2, range across motesanib dose groups
quantity: AUC(0-t)

[
  {
    "structure smiles string": "Nc1ccn([C@@H]2O[C@H](CO)[C@@H](O)C2(F)F)c(=O)n1",
    "quantity": "AUC(0-t)",
    "result": "6560 to 7920 ng·h/mL"
  }
]

====

Experiment: clinical
Conditions: human, in vivo, mean t1/2,z, after single-dose administration, range over cohorts
quantity: half-life

[
  {
    "structure smiles string": "CC1(C)CNc2cc(NC(=O)c3cccnc3NCc3ccncc3)ccc21",
    "result": "228 to 342 min"
  }
]

====

Assay: clinical
Details: human, in vivo, 125 mg, t1/2,z, h (s.d.), motesanib 125 mg QD; after single-dose (week 1, day 2); mean (s.d.)

[
  {
    "structure smiles string": "CC1(C)CNc2cc(NC(=O)c3cccnc3NCc3ccncc3)ccc21",
    "half-life [h]": 3.8
  }
]

====

Test: clinical
Conditions: human, in vivo, overall median tmax, after multiple-dose administration in combination with gemcitabine, range over cohorts
quantity: Tmax

[
  {
    "compound": "CC1(C)CNc2cc(NC(=O)c3cccnc3NCc3ccncc3)ccc21 [motesanib]",
    "quantity": "Tmax",
    "result": "0.83 to 2 h"
  }
]

====

Experiment: clinical
Settings: human, in vivo, mean t1/2,z, after multiple-dose administration in combination with gemcitabine, range over cohorts
quantity: half-life

[
  {
    "compound": "CC1(C)CNc2cc(NC(=O)c3cccnc3NCc3ccncc3)ccc21 [motesanib]",
    "result": "258 to 300 min"
  }
]

====

Assay: plasma pharmacokinetics of gemcitabine in patients (phase 1b)
Details: human, plasma, iv, tmax, h (range), gemcitabine 1000 mg m^−2 i.v. in combination with motesanib 125 mg QD (week 2, day 1)
quantity: Tmax

[
  {
    "molecule": "Nc1ccn([C@@H]2O[C@H](CO)[C@@H](O)C2(F)F)c(=O)n1 [gemcitabine]",
    "quantity": "Tmax",
    "result": "15 min"
  }
]

====

Assay: plasma pharmacokinetics of gemcitabine in patients (phase 1b)
Settings: human, plasma, iv, 1000 mg m^−2, AUC0–2, μg h ml^−1 (s.d.), gemcitabine 1000 mg m^−2 i.v. alone (week 1, day 1); motesanib 125 mg QD cohort
quantity: AUC(0-t) (ng·h/mL)

[
  {
    "molecule": "Nc1ccn([C@@H]2O[C@H](CO)[C@@H](O)C2(F)F)c(=O)n1 [gemcitabine]",
    "quantity": "AUC(0-t)",
    "quantitative result": 4720
  }
]

====

Assay: plasma pharmacokinetics of gemcitabine in patients (phase 1b)
Conditions: human, plasma, iv, AUC0–2, μg h ml^−1 (s.d.), gemcitabine 1000 mg m^−2 i.v. in combination with motesanib 125 mg QD (week 2, day 1)

[
  {
    "compound": "Nc1ccn([C@@H]2O[C@H](CO)[C@@H](O)C2(F)F)c(=O)n1 [gemcitabine]",
    "AUC(0-t)": "6560 ng·h/mL"
  }
]

====

Test: plasma pharmacokinetics of gemcitabine in patients (phase 1b)
Conditions: human, plasma, iv, 1000 mg m^−2, tmax, h (range), gemcitabine 1000 mg m^−2 i.v. alone (week 1, day 1); motesanib 50 mg QD cohort
quantity: Tmax (min)

[
  {
    "structure smiles string": "Nc1ccn([C@@H]2O[C@H](CO)[C@@H](O)C2(F)F)c(=O)n1",
    "quantitative result": 30
  }
]

====

Assay: plasma pharmacokinetics of gemcitabine in patients (phase 1b)
Conditions: human, plasma, iv, 1000 mg m^−2, tmax, h (range), gemcitabine 1000 mg m^−2 i.v. alone (week 1, day 1); motesanib 125 mg QD cohort

[
  {
    "compound": "Nc1ccn([C@@H]2O[C@H](CO)[C@@H](O)C2(F)F)c(=O)n1 [gemcitabine]",
    "Tmax (min)": 22.8
  }
]

====

Test: clinical
Conditions: human, in vivo, t1/2,z, h (s.d.), motesanib 125 mg QD; after multiple-dose with gemcitabine (week 2, day 1); mean (s.d.)

[
  {
    "structure smiles string": "CC1(C)CNc2cc(NC(=O)c3cccnc3NCc3ccncc3)ccc21",
    "half-life": "4.6 h"
  }
]

====

Assay: clinical
Settings: human, in vivo, tmax, h (range)

[
  {
    "compound": "CC1(C)CNc2cc(NC(=O)c3cccnc3NCc3ccncc3)ccc21 [motesanib]",
    "Tmax": "34.2 min"
  }
]

====

Assay: plasma pharmacokinetics of gemcitabine in patients (phase 1b)
Conditions: human, plasma, iv, AUC0–2, μg h ml^−1 (s.d.), gemcitabine 1000 mg m^−2 i.v. in combination with motesanib 75 mg BID (week 2, day 1)
quantity: AUC(0-t) (ng·h/mL)

[
  {
    "structure smiles string": "Nc1ccn([C@@H]2O[C@H](CO)[C@@H](O)C2(F)F)c(=O)n1",
    "quantitative result": 7090
  }
]

====

Assay: clinical
Conditions: human, in vivo, 125 mg, tmax, h (range), motesanib 125 mg QD; after single-dose (week 1, day 2); median (range)
quantity: Tmax (h)

[
  {
    "compound": "CC1(C)CNc2cc(NC(=O)c3cccnc3NCc3ccncc3)ccc21 [motesanib]",
    "quantity": "Tmax",
    "quantitative result": 1.5
  }
]

====

Experiment: clinical
Conditions: human, in vivo, 125 mg
quantity: concentration at 24 h

[
  {
    "structure smiles string": "CC1(C)CNc2cc(NC(=O)c3cccnc3NCc3ccncc3)ccc21",
    "quantity": "concentration at 24 h",
    "result": "6.9 ng/mL"
  }
]

====

Experiment: clinical
Settings: human, in vivo, po, overall median tmax, after single-dose oral administration, range for all three dose cohorts
quantity: Tmax

[
  {
    "compound": "CC1(C)CNc2cc(NC(=O)c3cccnc3NCc3ccncc3)ccc21 [motesanib]",
    "result": "0.5 to 1.5 h"
  }
]

====

Assay: clinical
Settings: human, in vivo, 125 mg
quantity: Cmax (µg/mL)

[
  {
    "compound": "CC1(C)CNc2cc(NC(=O)c3cccnc3NCc3ccncc3)ccc21 [motesanib]",
    "quantity": "Cmax",
    "quantitative result": 0.421
  }
]

====

Experiment: plasma pharmacokinetics of gemcitabine in patients (phase 1b)
Settings: human, plasma, iv, 1000 mg m^−2, C2, ng ml^−1 (s.d.), gemcitabine 1000 mg m^−2 i.v. alone (week 1, day 1); motesanib 75 mg BID cohort

[
  {
    "compound": "Nc1ccn([C@@H]2O[C@H](CO)[C@@H](O)C2(F)F)c(=O)n1 [gemcitabine]",
    "measurement units": "ng/mL",
    "concentration at 2 h": 101
  }
]

====

Assay: plasma pharmacokinetics of gemcitabine in patients (phase 1b)
Details: human, plasma, iv, C2, ng ml^−1 (s.d.), gemcitabine 1000 mg m^−2 i.v. in combination with motesanib 125 mg QD (week 2, day 1)
quantity: concentration at 2 h

[
  {
    "molecule": "Nc1ccn([C@@H]2O[C@H](CO)[C@@H](O)C2(F)F)c(=O)n1 [gemcitabine]",
    "quantity": "concentration at 2 h",
    "result": "133 ng/mL"
  }
]
